pIC50: −log10 of the molar value.
Note to self: these molecules have pIC50 reported for Tyrosine-protein kinase JAK3 (Homo sapiens, UniProt P52333) in various publications.

# Molecule, Assayed target, pIC50
records = [
    ("CCOC(=O)c1cnc2[nH]ccc2c1N[C@@H]1CCCN(C(=O)C(C)C#N)C1 (stereo partly drawn)", "Tyrosine-protein kinase JAK3 (Homo sapiens, UniProt P52333)", "≥ 8.00"),
    ("CCc1cc(O)c(F)cc1-c1cc2[nH]ncc2c(NCc2ccccc2N(CCO)S(C)(=O)=O)n1", "Tyrosine-protein kinase JAK3 (Homo sapiens, UniProt P52333)", 7.73),
    ("CN(c1ncnc2[nH]ccc12)C1CCC2(CC1)CCN(C(=O)CCC(F)(F)F)CC2", "Tyrosine-protein kinase JAK3 (Homo sapiens, UniProt P52333)", "5.00 to 6.00"),
    ("Cc1cnc2nc1Nc1cccc(c1)CCCNC(=O)c1c(F)cc(cc1F)-c1cnc(F)c(c1)N2", "Tyrosine-protein kinase JAK3 (Homo sapiens, UniProt P52333)", "5.00 to 6.00"),
    ("COc1ccc(-c2cc3c(N[C@H](C)C(O)C4CC4)c(C(N)=O)cnn3c2)cn1 (single isomer, unassigned; isomer a)", "Tyrosine-protein kinase JAK3 (Homo sapiens, UniProt P52333)", 9.30),
    ("CCC(CC)n1cc(-c2nc(-c3cnn(CCCS(C)(=O)=O)c3)cn3nccc23)cn1", "Tyrosine-protein kinase JAK3 (Homo sapiens, UniProt P52333)", "5.00 to 6.00"),
]
